Just for reference, PubChem BioAssay AID1259407 is where these values come from.

# Test system: CCRIS mutagenicity, Ames/micronucleus/aberration tests
# assayRemarks: CCRIS mutagenicity studies
# condition: Test System: AMES SALMONELLA TYPHIMURIUM; Strain/Indicator: TA1537; Metabolic Activation: RAT, LIVER, S-9, AROCLOR 1254 (30%); Method: PREINCUBATION
Active and inactive are the calls of the source. How the calls were made is not given here.
quantityMeasured: mutagenic call

Examples with answers:
c1cc2c3c(cccc3c1)CC2 :: inactive; negative
O :: inactive; negative
CC(O)C#N (stereo unspecified) :: inactive; negative
ClC1=C(Cl)[C@]2(Cl)[C@H]3[C@H]([C@@H]4C=C[C@H]3C4)[C@@]1(Cl)C2(Cl)Cl :: inactive; negative
O=C(O)C1=NN(c2ccc(S(=O)(=O)O)cc2)C(=O)C1N=Nc1ccc(S(=O)(=O)O)cc1.[Al] (stereo unspecified) :: inactive; negative

Would you kindly share the measured mutagenic call for Nc1ccc(Cl)cc1Cl ?
inactive; negative

Further, for CCC(=O)O ?
inactive; negative

Further, for NS(=O)(=O)c1cc2c(cc1Cl)NC=NS2(=O)=O ?
inactive; negative

Further, for Cc1cccc(Br)c1 ?
inactive; negative

Further, for CCCCCCCCCCCCCl ?
inactive; negative

Further, for C[C@@H]1C[C@@H]([C@H](O)CC2CC(=O)NC(=O)C2)C(=O)[C@@H](C)C1 ?
inactive; negative

====

# Tested on: CCRIS mutagenicity, Ames/micronucleus/aberration tests
# assayRemarks: CCRIS mutagenicity studies
# condition: Test System: AMES SALMONELLA TYPHIMURIUM; Strain/Indicator: TA100; Metabolic Activation: NONE; Method: PREINCUBATION
Activity calls are given as the source filed them. The rule behind the calls is not given here.
Result category, one only: active, inactive

O=[N+]([O-])c1ccc2c(c1)Cc1ccccc1-2 :: active
O=C1c2ccccc2C(=O)c2cc(O)ccc21 :: inactive

Would you kindly look at the next entry?
Hey, what did the test say about Cc1cc(=O)oc2cc3c(cc12)C1(C)OOC1(C)O3 (configuration not stated) ?
active

====

# System: CCRIS mutagenicity, Ames/micronucleus/aberration tests
# assayRemarks: CCRIS mutagenicity studies
# condition: Test System: AMES SALMONELLA TYPHIMURIUM; Strain/Indicator: TA97; Metabolic Activation: RAT, LIVER, S-9, AROCLOR 1254 (10%); Method: PREINCUBATION
Calls of active or inactive are those of the source. The rule behind the calls is not given here.
quantityMeasured: mutagenic call

Examples with answers:
c1ccc2sc(SSc3nc4ccccc4s3)nc2c1 :: inactive; negative
CN(C)c1cccc(O)c1 :: active; positive
CCCCCCCCCc1ccc(OP(=O)(Oc2ccccc2)Oc2ccccc2)cc1 :: inactive; negative
O=Cc1c(Cl)cccc1Cl :: inactive; negative
CC(O)C#N (configuration not stated) :: inactive; negative
C#C[C@]1(O)CC[C@H]2[C@@H]3CCc4cc(O)ccc4[C@H]3CC[C@@]21C :: inactive; negative
Nc1cc(Cl)ccc1O :: inactive; negative
CCCCOP(=O)(OCCCC)Oc1ccccc1 :: inactive; negative
O=C1NC(=O)c2cc([N+](=O)[O-])ccc21 :: inactive; negative
Cc1ccc(N)c(N)c1 :: active; positive

Would you kindly share the measured mutagenic call for Cc1ccc(N)c(C)c1 ?
inactive; negative

Further, for Nc1ccccc1N ?
active; positive

Further, for CC(=O)CC(=O)Nc1ccccc1 ?
inactive; negative

Further, for Cc1ccc(N)cc1C ?
inactive; negative

Further, for CCCCCCCCCCCCCC(=O)O ?
inactive; negative

====

# Test system: CCRIS mutagenicity, Ames/micronucleus/aberration tests
# assayRemarks: CCRIS mutagenicity studies
# condition: Test System: AMES SALMONELLA TYPHIMURIUM; Strain/Indicator: TA1535; Metabolic Activation: RAT, LIVER, S-9, AROCLOR 1254 (30%); Method: PREINCUBATION
# Excerpt: The CCRIS database contains chemical records with carcinogenicity, mutagenicity, tumor promotion, and tumor inhibition test results. It was developed by the National Cancer Institute (NCI). Data are derived from studies cited in primary journals, current awareness tools, NCI reports, and other sources. Test results have been reviewed by experts in carcinogenesis and mutagenesis. CCRIS provides historical information from the years 1985 - 2011. It is no longer updated. […]
Calls of active or inactive are those of the source. The rule behind the calls is not given here.
Result category, one only: true (active), false (inactive)

See these solved cases before continuing.
Nc1cc(Cl)ccc1O :: false
O=C(O)C1=NN(c2ccc(S(=O)(=O)O)cc2)C(=O)C1N=Nc1ccc(S(=O)(=O)O)cc1.[Al] (configuration not stated) :: false
O=C(OCC1CO1)C1CCCCC1C(=O)OCC1CO1 (configuration not stated) :: true

Hey, what did the test say about c1cc2c3c(cccc3c1)CC2 ?
false

Further, for CCCCOP(=O)(OCCCC)Oc1ccccc1 ?
false

Further, for C=CCOC(=O)C=C ?
false

Further, for CC(O)C#N (configuration not stated) ?
false

====

# Test system: CCRIS mutagenicity, Ames/micronucleus/aberration tests
# assayRemarks: CCRIS mutagenicity studies
# condition: Test System: AMES SALMONELLA TYPHIMURIUM; Strain/Indicator: TA1537; Metabolic Activation: NONE; Method: STANDARD PLATE
Activity calls are given as the source filed them. How the calls were made is not given here.
Result category, one only: active, inactive

See these solved cases before continuing.
C[C@]12CC[C@H](OC(=O)/C=C/c3cccc(N(CCCl)CCCl)c3)CC1=CC[C@@H]1[C@@H]2CC[C@]2(C)NC(=O)CC[C@@H]12 :: inactive
C#C[C@]1(OC(C)=O)CC[C@H]2[C@@H]3CCC4=CC(=O)CC[C@@H]4[C@H]3CC[C@@]21C :: inactive
c1ccc(-c2ccc(-c3ccccc3)cc2)cc1 :: inactive
c1ccc2sncc2c1 :: inactive
Nc1c(C(=O)O)cc([N+](=O)[O-])c2c1C(=O)c1ccccc1C2=O :: active

Hey, what did the test say about CCCC(O)C(CC)CO (configuration not stated) ?
inactive

Further, for CC(=O)Nc1ccc(S(=O)(=O)O)c2cc(S(=O)(=O)O)c(N=Nc3ccc(N=Nc4ccc(S(=O)(=O)O)cc4)c4ccc(S(=O)(=O)O)cc34)c(O)c12 ?
inactive

Further, for Nc1cc2[nH]c3ccccc3c2cc1[N+](=O)[O-] ?
inactive

Further, for Cc1c(N)cc([N+](=O)[O-])c(N)c1C ?
inactive

Further, for COC(=O)C(C)(C)Oc1ccc(-c2ccc(Cl)cc2)cc1 ?
inactive

Further, for CCCCOCCOCCO ?
inactive

Further, for CN(C)CCN(Cc1cccs1)c1ccccn1 ?
inactive

Further, for N#Cc1cc([N+](=O)[O-])ccc1N=Nc1ccc(N(CCO)CCO)cc1 ?
active

Further, for OO ?
inactive

====

# Test system: CCRIS mutagenicity, Ames/micronucleus/aberration tests
# assayRemarks: CCRIS mutagenicity studies
# condition: Test System: AMES SALMONELLA TYPHIMURIUM; Strain/Indicator: TA100; Metabolic Activation: RAT, LIVER, S-9, KANECLOR 500; Method: STANDARD PLATE
Activity calls are given as the source filed them. The rule behind the calls is not given here.
quantityMeasured: mutagenic call

CC(=O)Nc1ccc(Oc2ccc(Cl)cc2)cc1 :: active; positive
CC(=O)N(O)c1ccc(Oc2c(Cl)cc(Cl)cc2Cl)cc1 :: active; positive
O=CNc1ccc(Oc2c(Cl)cc(Cl)cc2Cl)cc1 :: active; positive
CC(=O)N(O)c1ccc(Oc2ccc(Cl)cc2)cc1 :: active; positive

====

# Test system: CCRIS mutagenicity, Ames/micronucleus/aberration tests
# assayRemarks: CCRIS mutagenicity studies
# condition: Test System: AMES SALMONELLA TYPHIMURIUM; Strain/Indicator: TA98; Metabolic Activation: HAMSTER, LIVER, S-9, AROCLOR 1254 (10%); Method: PREINCUBATION
Active and inactive are the calls of the source. How the calls were made is not given here.
Result category, one only: true (1) (active), false (0) (inactive)

See these solved cases before continuing.
CC(CCN(C)C)N(C)C (centres undefined) :: false (0)
Clc1nc(Cl)nc(Nc2ccccc2Cl)n1 :: false (0)
CCCCOP(=O)(OCCCC)Oc1ccccc1 :: false (0)
CCOc1ccc(N=Nc2ccc(-c3ccc(N=Nc4c(O)ccc5cc(S(=O)(=O)O)cc(S(=O)(=O)O)c45)c(C)c3)cc2C)cc1 :: false (0)
CN(C)c1cccc(O)c1 :: true (1)
C=CC(=O)O :: false (0)
CC1=CC(C)(C)Nc2ccccc21 :: false (0)
c1ccc(CSCc2ccccc2)cc1 :: false (0)
CC(=O)CC(=O)Nc1ccccc1 :: false (0)
CCc1c(Br)c(Br)c(Br)c(Br)c1Br :: false (0)

Hey, what did the test say about CCCCCc1cc(O)cc(O)c1 ?
false (0)

Further, for O=NN(CCO)CCO ?
true (1)

Further, for O=C(O)C1=NN(c2ccc(S(=O)(=O)O)cc2)C(=O)C1N=Nc1ccc(S(=O)(=O)O)cc1.[Al] (centres undefined) ?
false (0)

Further, for Cc1c(Br)c(Br)c(Br)c(Br)c1Br ?
false (0)
